// provenance: patent US20260125421A1

Reported pIC50 values for a set of compounds
- Target Or System: HCoV-229E 3CL^pro (Human coronavirus 229E, UniProt P0C6X1)
- Construct: […]; made in house; host or cells: E. coli BL21 (DE3)
- Sequence (P0C6X1 2966-3267): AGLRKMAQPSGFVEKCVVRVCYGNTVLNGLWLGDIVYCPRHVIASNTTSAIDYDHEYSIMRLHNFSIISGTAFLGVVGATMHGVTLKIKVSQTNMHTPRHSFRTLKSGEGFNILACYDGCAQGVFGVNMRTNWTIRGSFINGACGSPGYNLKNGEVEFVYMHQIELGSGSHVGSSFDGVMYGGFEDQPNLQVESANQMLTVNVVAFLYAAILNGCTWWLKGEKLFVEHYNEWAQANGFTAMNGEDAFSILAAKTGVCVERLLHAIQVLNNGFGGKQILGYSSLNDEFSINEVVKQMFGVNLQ
- Test Description: biochemical
pIC50: −log10 of the molar value.

Given Smiles	Target Or System	pIC50
CC(C)(C)[C@H](NC(=O)[C@@H]1CC1(F)F)C(=O)N1C[C@@H]2CCC[C@@H]2[C@H]1C(=O)NN(C[C@@H]1C(=O)N[C@@H]2C[C@H]12)C(=O)[C@H](F)Cl	HCoV-229E 3CL^pro (Human coronavirus 229E, UniProt P0C6X1)	6.87
C[C@@H]1C[C@H](CN(NC(=O)[C@@H]2[C@@H]3[C@H](CN2C(=O)[C@@H](NC(=O)[C@@H]2CC2(F)F)C(C)(C)C)C3(C)C)C(=O)[C@@H](F)Cl)C(=O)N1	HCoV-229E 3CL^pro (Human coronavirus 229E, UniProt P0C6X1)	7.15
CC1(C)C[C@@H](CN(NC(=O)[C@@H]2[C@@H]3[C@H](CN2C(=O)[C@@H](NC(=O)[C@@H]2CC2(F)F)C(C)(C)C)C3(C)C)C(=O)[C@@H](F)Cl)C(=O)N1	HCoV-229E 3CL^pro (Human coronavirus 229E, UniProt P0C6X1)	5.26
CC(C)(C)[C@H](NC(=O)[C@@H]1CC1(F)F)C(=O)N1C[C@@H]2CCC[C@@H]2[C@H]1C(=O)NN(C[C@H]1C(=O)N[C@H]2C[C@H]21)C(=O)[C@H](F)Cl	HCoV-229E 3CL^pro (Human coronavirus 229E, UniProt P0C6X1)	7.27
CCC(CC)[C@H](NC(=O)C(F)F)C(=O)N1C[C@@H]2CCC[C@@H]2[C@H]1C(=O)NN(C[C@@H]1CC(C)(C)NC1=O)C(=O)[C@@H](F)Cl	HCoV-229E 3CL^pro (Human coronavirus 229E, UniProt P0C6X1)	5.90

----------
# HCoV-229E 3CL^pro (Human coronavirus 229E, UniProt P0C6X1): pIC50 values follow
pIC50: −log10 of the molar value.
Measured Property: pIC50

Given Smiles	Measured Property	Operator Symbol	Result Value
CC1(C)C[C@H](CN(NC(=O)[C@@H]2[C@H]3CCC[C@H]3CN2C(=O)[C@@H](NC(=O)C(F)F)C(C)(C)C)C(=O)[C@H](F)Cl)C(=O)N1	pIC50	=	5.52
C[C@H]1C[C@H](CN(NC(=O)[C@@H]2[C@H]3CCC[C@H]3CN2C(=O)[C@@H](NC(=O)[C@@H]2CC2(F)F)C(C)(C)C)C(=O)[C@H](F)Cl)C(=O)N1	pIC50	=	6.31
CC1(C)C[C@@H](CN(NC(=O)[C@@H]2[C@H]3CCC[C@H]3CN2C(=O)[C@@H](NC(=O)[C@H](F)Cl)C(C)(C)C)C(=O)[C@@H](F)Cl)C(=O)N1	pIC50	<	5.00

----------
The compounds listed here are annotated with their IC50.
- Target Or System: SARS-CoV 3CL^pro (Severe acute respiratory syndrome coronavirus)

Compound	IC50 [µM]
CCC(CC)[C@H](NC(=O)[C@@H](F)Cl)C(=O)N1C[C@@H]2CCC[C@@H]2[C@H]1C(=O)NN(C[C@@H]1CC(C)(C)NC1=O)C(=O)[C@@H](F)Cl	0.011
CCC(CC)[C@H](NC(=O)[C@H](F)Cl)C(=O)N1C[C@@H]2CCC[C@@H]2[C@H]1C(=O)NN(C[C@@H]1CC(C)(C)NC1=O)C(=O)[C@H](F)Cl	0.007
CC(C)(C)[C@H](NC(=O)[C@@H]1CC1(F)F)C(=O)N1C[C@@H]2CCC[C@@H]2[C@H]1C(=O)NN(C[C@H]1C(=O)N[C@H]2C[C@H]21)C(=O)[C@@H](F)Cl	0.034
CC1(C)CC(CN(NC(=O)[C@@H]2[C@H]3CCC[C@H]3CN2C(=O)[C@@H](NC(=O)[C@@H]2CC2(F)F)C(C)(C)C)C(=O)[C@H](F)Cl)C(=O)N1 (mixture of isomers)	0.028
CC(C)(C)[C@H](NC(=O)[C@@H]1CC1(F)F)C(=O)N1C[C@@H]2CCC[C@@H]2[C@H]1C(=O)NN(C[C@@H]1C(=O)N[C@@H]2C[C@H]12)C(=O)[C@@H](F)Cl	0.122
CC1(C)C[C@@H](CN(NC(=O)[C@@H]2[C@H]3CCC[C@H]3CN2C(=O)[C@@H](NC(=O)C(F)F)C(C)(C)C)C(=O)[C@@H](F)Cl)C(=O)N1	0.041
CC[C@H](C)[C@H](NC(=O)C1(F)CC1)C(=O)N1C[C@H]2[C@@H]([C@H]1C(=O)NN(C[C@H]1CC(C)(C)NC1=O)C(=O)[C@H](F)Cl)C2(C)C	0.018
C[C@H]1C[C@@H](CN(NC(=O)[C@@H]2[C@H]3CCC[C@H]3CN2C(=O)[C@@H](NC(=O)[C@@H]2CC2(F)F)C(C)(C)C)C(=O)[C@H](F)Cl)C(=O)N1	0.01
CC(C)(C)[C@H](NC(=O)[C@@H]1CC1(F)F)C(=O)N1C[C@@H]2CCC[C@@H]2[C@H]1C(=O)NN(C[C@H]1CC2(CC2)NC1=O)C(=O)[C@H](F)Cl	0.011
CC(C)(C)[C@H](NC(=O)[C@@H]1CC1(F)F)C(=O)N1C[C@@H]2CCC[C@@H]2[C@H]1C(=O)NN(C[C@@H]1C(=O)N[C@@H]2C[C@H]12)C(=O)[C@H](F)Cl	0.054

----------
# collection of log10 IC50 values tested on MERS-CoV 3CL^pro (Middle East respiratory syndrome-related coronavirus, UniProt K9N7C7)
# Sequence (K9N7C7 3248-3553): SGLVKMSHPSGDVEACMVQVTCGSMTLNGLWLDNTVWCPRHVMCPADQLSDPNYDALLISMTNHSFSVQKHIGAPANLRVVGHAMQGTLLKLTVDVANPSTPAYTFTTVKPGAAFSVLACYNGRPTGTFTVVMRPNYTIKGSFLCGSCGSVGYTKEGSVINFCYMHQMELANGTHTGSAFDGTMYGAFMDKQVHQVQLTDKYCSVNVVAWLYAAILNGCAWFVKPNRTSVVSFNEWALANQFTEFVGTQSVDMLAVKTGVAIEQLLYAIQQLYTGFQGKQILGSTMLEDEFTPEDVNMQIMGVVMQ
Measured Property: log10 IC50 (log10 of the value in nM)

Given Smiles	Result Value
CC[C@H](C)[C@H](NC(=O)C1(F)CC1)C(=O)N1C[C@H]2[C@@H]([C@H]1C(=O)NN(C[C@H]1CC(C)(C)NC1=O)C(=O)[C@H](F)Cl)C2(C)C	2.37
C[C@H]1C[C@H](CN(NC(=O)[C@@H]2[C@@H]3[C@H](CN2C(=O)[C@@H](NC(=O)[C@@H]2CC2(F)F)C(C)(C)C)C3(C)C)C(=O)[C@H](F)Cl)C(=O)N1	2.74
CC1(C)C[C@@H](CN(NC(=O)[C@@H]2[C@H]3CCC[C@H]3CN2C(=O)[C@@H](NC(=O)C(F)F)C(C)(C)C)C(=O)[C@@H](F)Cl)C(=O)N1	3.47
CC(C)(C)[C@H](NC(=O)[C@@H]1CC1(F)F)C(=O)N1C[C@@H]2CCC[C@@H]2[C@H]1C(=O)NN(C[C@@H]1CC2(CC2)NC1=O)C(=O)[C@H](F)Cl	1.79
C[C@@H]1C[C@H](CN(NC(=O)[C@@H]2[C@H]3CCC[C@H]3CN2C(=O)[C@@H](NC(=O)[C@@H]2CC2(F)F)C(C)(C)C)C(=O)[C@@H](F)Cl)C(=O)N1	2.54
CC1(C)C[C@@H](CN(NC(=O)[C@@H]2[C@@H]3[C@H](CN2C(=O)[C@@H](NC(=O)[C@H](F)Cl)C(C)(C)C)C3(C)C)C(=O)[C@H](F)Cl)C(=O)N1	3.03
CC(C)(C)[C@H](NC(=O)[C@@H]1CC1(F)F)C(=O)N1C[C@@H]2CCC[C@@H]2[C@H]1C(=O)NN(C[C@@H]1C(=O)N[C@@H]2C[C@H]12)C(=O)[C@@H](F)Cl	2.73
CC1(C)C[C@@H](CN(NC(=O)[C@@H]2[C@H]3CCC[C@H]3CN2C(=O)[C@@H](NC(=O)[C@@H](F)Cl)C(C)(C)C)C(=O)[C@H](F)Cl)C(=O)N1	2.69
C[C@H]1C[C@@H](CN(NC(=O)[C@@H]2[C@H]3CCC[C@H]3CN2C(=O)[C@@H](NC(=O)[C@@H]2CC2(F)F)C(C)(C)C)C(=O)[C@H](F)Cl)C(=O)N1	1.80
C[C@H]1C[C@@H](CN(NC(=O)[C@@H]2[C@@H]3[C@H](CN2C(=O)[C@@H](NC(=O)[C@@H]2CC2(F)F)C(C)(C)C)C3(C)C)C(=O)[C@H](F)Cl)C(=O)N1	1.86

----------
- Target Or System: HCoV-229E 3CL^pro (Human coronavirus 229E, UniProt P0C6X1)
pIC50: −log10 of the molar value.

Given Smiles	pIC50
CC(C)(C)[C@H](NC(=O)[C@@H]1CC1(F)F)C(=O)N1C[C@@H]2CCC[C@@H]2[C@H]1C(=O)NN(C[C@H]1C(=O)N[C@@H]2C[C@@H]21)C(=O)[C@@H](F)Cl	6.72
CC(C)(C)[C@H](NC(=O)[C@@H]1CC1(F)F)C(=O)N1C[C@@H]2CCC[C@@H]2[C@H]1C(=O)NN(C[C@H]1CC2(CC2)NC1=O)C(=O)[C@H](F)Cl	7.35
CC1(C)C[C@@H](CN(NC(=O)[C@@H]2[C@H]3CCC[C@H]3CN2C(=O)[C@@H](NC(=O)[C@@H](F)Cl)C(C)(C)C)C(=O)[C@H](F)Cl)C(=O)N1	6.23
CC[C@H](C)[C@H](NC(=O)C1(F)CC1)C(=O)N1C[C@H]2[C@@H]([C@H]1C(=O)NN(C[C@H]1CC(C)(C)NC1=O)C(=O)[C@@H](F)Cl)C2(C)C	6.08
CCC(CC)[C@H](NC(=O)C(F)F)C(=O)N1C[C@@H]2CCC[C@@H]2[C@H]1C(=O)NN(C[C@@H]1CC(C)(C)NC1=O)C(=O)[C@H](F)Cl	6.89
